System: SK-OV-3 ovarian
assay: NCI tumour cell line growth inhibition, 48 h
Reported TGI values follow for various molecules
Give the number; µM is assumed, so skip it.

INPUT: # get_value(readout='TGI', item= COc1cccc2c1-c1ccccc1[C@H](Nc1ccccc1)[C@@]2(C)O )
OUTPUT: 21.3

INPUT: Can you handle COc1ccc(Nc2nccc(Nc3ccc4[nH]ncc4c3)n2)cc1 next?
OUTPUT: 21.7

----------
Test system: MDA-MB-435
assay: NCI tumour cell line growth inhibition, 48 h
experimental.readout: TGI (µM)
Give the number; µM is assumed, so skip it.

structure | experimental.readout | measured
COc1ccc(/C=C/c2nnc(/C=C/c3ccc(OC)c(OC)c3)o2)cc1OC | TGI | 3.93

Turning now to a further record.
INPUT: # get_value(readout='TGI', item= C[n+]1c(-c2ccccc2)cc2/c(=C\c3ccccc3)c3ccccc3n21 )
OUTPUT: 2.45

Data provenance: PubChem BioAssay (NCI)
